Test system: Malme-3M
Test: NCI tumour cell line growth inhibition, 48 h
The source made the active and inactive calls. Cut-off read from the data, not from the text of the source: active = GI50 up to about 1.1 µM and inactive = higher.
Tick one outcome: t = active, f = inactive

Completed entries (count: 2):
molecule: O=c1c(O)c(-c2ccc(O)c(O)c2)oc2cc(O)ccc12
answerLabel: f
--
molecule: O=C(CCC(=O)Nc1cccc(Cl)c1)CC(=O)c1ccc(F)cc1
answerLabel: f

(Q) Per the records of this test, what outcome belongs to "CCN(CC)C(=O)CCN1CC1" ?
(A) f

(Q) What classification did C=C1C[C@H](O)[C@H]2C(C[Se]c3ccccc3)C(=O)O[C@@H]2[C@H]2[C@H](C)C(O)C[C@@H]12 (some centres undefined) end up with in this test?
(A) f

(Q) What did the test return for "CCn1c(CCl)nc2c1C(=O)c1ccccc1C2=O" ?
(A) t

(Q) What was the test verdict on "Cc1nc2[nH]ncn2c(=O)c1CCCl" ?
(A) f
